# target_desc: C5 (Homo sapiens, UniProt P01031)
# Sequence (P01031 19-1676): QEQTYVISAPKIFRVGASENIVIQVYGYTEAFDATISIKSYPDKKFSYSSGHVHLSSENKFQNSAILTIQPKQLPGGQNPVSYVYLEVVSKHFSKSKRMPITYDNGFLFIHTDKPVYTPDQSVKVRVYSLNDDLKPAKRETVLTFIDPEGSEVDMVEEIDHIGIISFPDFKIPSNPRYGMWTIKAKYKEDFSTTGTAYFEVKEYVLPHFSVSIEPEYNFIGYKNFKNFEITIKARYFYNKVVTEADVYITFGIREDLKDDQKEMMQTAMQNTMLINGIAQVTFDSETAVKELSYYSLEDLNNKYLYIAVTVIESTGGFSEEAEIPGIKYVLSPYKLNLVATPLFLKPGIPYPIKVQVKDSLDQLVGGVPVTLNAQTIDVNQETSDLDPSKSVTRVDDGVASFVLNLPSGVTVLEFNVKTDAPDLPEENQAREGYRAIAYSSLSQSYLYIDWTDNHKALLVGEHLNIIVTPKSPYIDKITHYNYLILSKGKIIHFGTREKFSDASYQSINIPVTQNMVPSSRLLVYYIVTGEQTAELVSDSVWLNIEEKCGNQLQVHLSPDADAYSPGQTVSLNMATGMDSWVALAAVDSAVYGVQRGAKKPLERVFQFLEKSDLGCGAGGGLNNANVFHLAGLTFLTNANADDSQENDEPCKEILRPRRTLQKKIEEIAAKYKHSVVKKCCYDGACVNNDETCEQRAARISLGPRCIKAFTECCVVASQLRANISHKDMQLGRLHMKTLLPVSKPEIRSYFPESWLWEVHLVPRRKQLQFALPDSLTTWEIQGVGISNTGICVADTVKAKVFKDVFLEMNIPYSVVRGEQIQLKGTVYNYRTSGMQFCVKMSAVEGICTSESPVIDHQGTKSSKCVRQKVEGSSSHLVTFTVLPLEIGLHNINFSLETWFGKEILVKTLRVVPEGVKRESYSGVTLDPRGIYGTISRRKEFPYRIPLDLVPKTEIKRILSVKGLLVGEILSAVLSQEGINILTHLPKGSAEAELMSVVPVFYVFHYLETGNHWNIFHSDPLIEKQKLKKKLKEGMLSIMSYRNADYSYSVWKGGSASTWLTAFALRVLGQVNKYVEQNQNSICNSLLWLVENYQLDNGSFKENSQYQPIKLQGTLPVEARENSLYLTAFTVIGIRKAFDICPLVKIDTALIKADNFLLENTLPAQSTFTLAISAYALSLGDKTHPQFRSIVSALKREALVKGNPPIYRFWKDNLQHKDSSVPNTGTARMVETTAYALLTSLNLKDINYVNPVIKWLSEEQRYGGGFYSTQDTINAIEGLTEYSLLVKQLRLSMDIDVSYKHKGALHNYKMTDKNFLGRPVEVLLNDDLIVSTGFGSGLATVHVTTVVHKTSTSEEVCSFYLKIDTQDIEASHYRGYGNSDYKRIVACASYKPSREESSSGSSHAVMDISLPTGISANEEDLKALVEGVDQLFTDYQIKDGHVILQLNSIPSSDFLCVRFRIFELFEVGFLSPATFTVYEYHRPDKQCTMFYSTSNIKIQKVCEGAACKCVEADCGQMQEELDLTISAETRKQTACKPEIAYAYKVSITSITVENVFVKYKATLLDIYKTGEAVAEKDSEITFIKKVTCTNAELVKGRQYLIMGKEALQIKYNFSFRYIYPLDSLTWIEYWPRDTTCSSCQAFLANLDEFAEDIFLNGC
# assay_overview: Competitive fluorescence polarization assay with probe R3076
# Format: binding
# Parameters: purchased Complement Technology, Tyler, Tex
# test_settings: competition with probe R3076 25 nM, C5 50 nM, 60 min at 25° C.; experiment 2; read-out: IC50 nM, Exp 2
# Description: FP allows binding events to be measured in a homogenous solution. Polarization was measured over time, until binding reached equilibrium. KD was determined using Graphpad Prism (using “Saturating Binding Curves, One Site—Specific Binding With Hill Slope” as the curve fit to determine KD). […] After incubation for 60 minutes, the plate was read using the Paradigm FP protocol (Molecular Devices, Sunnyvale, Calif.) and raw polarization values were imported into Graphpad Prism.
Non-standard residues stand in square brackets, D forms with d. Residues, ends and D or L forms follow the SMILES beside them. Trp(7-aza) = N[C@@H](Cc1c[nH]c2ncccc12)C(=O)O; Phg = N[C@H](C(=O)O)c1ccccc1; Tle = CC(C)(C)[C@H](N)C(=O)O; Nva = CCC[C@H](N)C(=O)O
readout_type: IC50

Name the recorded IC50 for CCC[C@H](NC(=O)[C@H](Cc1ccc(O)cc1)NC(=O)[C@H](CC(N)=O)NC(=O)[C@H](CCC)NC(=O)[C@H](CCC(=O)O)NC(=O)[C@@H](NC(=O)[C@H](Cc1c[nH]c2ncccc12)NC(=O)[C@@H](NC(=O)[C@H](CS)NC(=O)[C@H](Cc1ccc(O)cc1)NC(=O)[C@@H]1CCCN1C(=O)[C@H](Cc1ccc(O)cc1)NC(C)=O)c1ccccc1)C(C)(C)C)C(=O)N[C@@H](CCC(=O)O)C(N)=O [Compound R3023] (Ac-YPYC[Phg][Trp(7-aza)][Tle]E[Nva]NY[Nva]E-NH2) .
> 1000 nM
